Hey, just so you know, these numbers are from ChEMBL document CHEMBL4689842.

Exercise: state measured Population Normal (%) for each of the molecules provided.
tested on: U2OS; assay: Multiplex assay against U2OS; format: toxicity, cell-based; conditions: human, 48 h, 10 µM, compound concentration 10 uM, replicate 1
Field: value (include unit after the number)

Below are worked cases with known answers.
[[record]]
molecule = "Oc1cccc(-c2nc(N3CCOCC3)c3oc4ncccc4c3n2)c1 [PI-103]"
result_value = "84%"

[[record]]
molecule = "Cc1ccc(S(=O)(=O)NC2c3ccccc3Oc3ccccc32)cc1"
result_value = "96%"

[[record]]
molecule = "CN(c1cc(C(F)(F)F)nc(OCCC(=O)O)n1)c1cccc2c1CCC2"
result_value = "97%"


What the record says about "CC(/C=C1\SC(=S)N(CCCC(=O)Nc2ccc(C(=O)O)c(O)c2)C1=O)=C\c1ccccc1" : Population Normal (%) is 97%
